- experimental-target: human CB1 receptor (Homo sapiens, UniProt P21554)
- Construct: expressed in transfected cells; host or cells: HEK293
- Sequence (P21554 whole entry): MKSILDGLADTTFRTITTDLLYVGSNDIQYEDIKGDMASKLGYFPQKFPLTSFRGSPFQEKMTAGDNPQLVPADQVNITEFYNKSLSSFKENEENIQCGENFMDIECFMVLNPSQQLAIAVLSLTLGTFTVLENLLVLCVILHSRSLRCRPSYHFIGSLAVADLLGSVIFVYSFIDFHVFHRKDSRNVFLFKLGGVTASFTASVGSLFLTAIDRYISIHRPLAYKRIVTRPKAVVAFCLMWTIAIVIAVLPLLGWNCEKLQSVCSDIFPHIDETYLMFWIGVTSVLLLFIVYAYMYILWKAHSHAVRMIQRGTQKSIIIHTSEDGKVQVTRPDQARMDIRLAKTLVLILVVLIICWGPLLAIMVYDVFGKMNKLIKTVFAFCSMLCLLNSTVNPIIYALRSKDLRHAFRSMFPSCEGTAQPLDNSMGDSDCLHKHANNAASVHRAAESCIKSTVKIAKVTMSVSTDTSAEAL
- assay-protocol: bioSensAll β-arrestin plasma membrane translocation BRET biosensor (+GRK2) assay (antagonism of CP-55,940)
- Format: cell-based
- conditions-used: HEK293 cells transfected with hCB1 and β-arrestin PM translocation biosensor (+GRK2), EC75 of CP-55,940 (100 nM), overnight incubation, read-out: CB1 wt βarr2 IC50
quantity-name: pIC50
Lab note — pIC50 values are minus log10 of concentrations in M.

smiles_text=Cc1ccc(-c2cc(N3CCC[C@H]3CO)nc3c(-c4ccc(Cl)cc4)c(-c4ccccc4Cl)nn23)cn1 quantity_name=pIC50 test_value=8.24

What pIC50 appears in the records for this molecule with human CB1 receptor (Homo sapiens, UniProt P21554)? `CN(C)C(=O)CN(C)c1cc(N2CCC[C@@H](C(N)=O)C2)n2nc(-c3ccccc3Cl)c(-c3ccc(Cl)cc3)c2n1` 6.94

Moving on to `CC(C)(O)COc1cc(N2CCN(S(C)(=O)=O)CC2)n2nc(-c3ccccc3Cl)c(-c3ccc(Cl)cc3)c2n1` 7.88

Try this molecule too: `CC(C)(O)COc1cc(N2CCC(C)(C(N)=O)CC2)n2nc(-c3ccc(C#N)nc3)c(-c3ccc(Cl)cc3)c2n1` 8.61

###

- experimental-target: human CB1 receptor (Homo sapiens)
- Construct: expressed in transfected cells; host or cells: HEK293
- assay-protocol: bioSensAll β-arrestin plasma membrane translocation BRET biosensor (+GRK2) assay (antagonism of CP-55,940)
- Assay type: cell-based
- conditions-used: HEK293 cells transfected with hCB1 and β-arrestin PM translocation biosensor (+GRK2), EC75 of CP-55,940 (100 nM), overnight incubation, read-out: CB1 wt βarr2 IC50
quantity-name: IC50 (nM)
Report the figure in nM without appending any unit label.

compound="CCNC1(C(N)=O)CCN(c2cc(N3CCC[C@H]3CO)nc3c(-c4ccc(Cl)cc4)c(-c4ccccc4Cl)nn23)CC1 [Compound 1]" test_value=4.31
compound="CN(CC(C)(C)O)c1cc(N2CCC(C)(C(N)=O)CC2)n2nc(-c3ccccc3Cl)c(-c3ccc(Cl)cc3)c2n1 [Compound 20]" test_value=22.8
compound="COc1ccccc1-c1nn2c(-c3cccc(C#N)c3)cc(N3CCC[C@H]3CO)nc2c1-c1ccc(Cl)cc1 [Compound 3]" test_value=9.94
compound="CC1(C(N)=O)CCN(c2cc(N3CCC[C@H]3C(N)=O)nc3c(-c4ccc(Cl)cc4)c(-c4ccccc4Cl)nn23)CC1 [Compound 37]" test_value=35.3

For the next question, use this compound.
Look up IC50 for this compound: CC1(C(N)=O)CCN(c2cc(N3CCC[C@H]3C(=O)O)nc3c(-c4ccc(Cl)cc4)c(-c4ccccc4Cl)nn23)CC1 [Compound 18] 109

###

- experimental-target: human CB1 receptor (Homo sapiens, UniProt P21554)
- Construct: expressed in transfected cells; host or cells: HEK293
- assay-protocol: bioSensAll GAPL-Gi2 BRET biosensor assay (antagonism of CP-55,940)
- Type: cell-based
- conditions-used: HEK293 cells transfected with hCB1 and GAPL-Gi2 biosensor, EC75 of CP-55,940 (0.1 nM), overnight incubation, read-out: CB1 wt Gi2 IC50
Please respond with yes when measured IC50 is strictly beneath 6 nM, and with no in all other cases.

Illustrative cases are given below, each with its answer.
compound=COc1ccc(-c2cc(N3CCC[C@H]3CO)nc3c(-c4ccc(Cl)cc4)c(-c4ccc(C#N)cc4)nn23)cc1 qualitative_label=yes
compound=CN(CCC(N)=O)c1cc(N2CC[C@H](CC(N)=O)C2)n2nc(-c3ccccc3Cl)c(-c3ccc(Cl)cc3)c2n1 qualitative_label=no
compound="CC(C)(O)COc1cc(N2CCC[C@H](C(N)=O)C2)n2nc(-c3ccccc3Cl)c(-c3ccc(Cl)cc3)c2n1 [Compound 17(S)]" qualitative_label=no
compound=CC(C)(O)COc1cc(N2CC(C(N)=O)C2)n2nc(-c3ccc(C#N)nc3)c(-c3ccc(Cl)cc3)c2n1 qualitative_label=no
compound=CN(CP(C)(C)=O)c1cc(N2CCC(C)(C(N)=O)CC2)n2nc(-c3ccccc3Cl)c(-c3ccc(Cl)cc3)c2n1 qualitative_label=no
compound=CCNC(=O)CN(C)c1cc(N2CC(OCC(N)=O)C2)n2nc(-c3ccccc3Cl)c(-c3ccc(Cl)cc3)c2n1 qualitative_label=no
compound=CC(C)(O)COc1cc(N2CC(C)(C#N)C2)n2nc(-c3ccc(C#N)nc3)c(-c3ccc(Cl)cc3)c2n1 qualitative_label=yes
compound=CNC(=O)CCN(C)c1cc(N2CC(CC(N)=O)C2)n2nc(-c3ccccc3Cl)c(-c3ccc(Cl)cc3)c2n1 qualitative_label=no
compound=Cc1ccc(-c2cc(N3CCC[C@H]3CO)nc3c(-c4ccc(Cl)cc4)c(-c4ccccc4Cl)nn23)cn1 qualitative_label=yes
compound=CC(C)OC1(C(N)=O)CCN(c2cc(N3CCC[C@H]3CO)nc3c(-c4ccc(Cl)cc4)c(-c4ccccc4Cl)nn23)CC1 qualitative_label=yes

Does C[C@H](O)COc1cc(-c2ccc(C(F)(F)F)nc2)n2nc(-c3ccccc3Cl)c(-c3ccc(Cl)cc3)c2n1 [Compound 70(S)] have IC50 strictly under 6 nM? yes

Input `CCOC1(C(N)=O)CCN(c2cc(OCC(C)(C)O)nc3c(-c4ccc(Cl)cc4)c(-c4ccc(C#N)nc4)nn23)CC1` yes

Subsequent entry: `CC1(C(N)=O)CCN(c2cc(N3CCC[C@H]3CO)nc3c(-c4ccc(Cl)cc4)c(-c4ccccc4Cl)nn23)CC1` yes

`COC1(C)CN(c2cc(OCC(C)(C)O)nc3c(-c4ccc(Cl)cc4)c(-c4ccc(C#N)nc4)nn23)C1` ? yes

Would you kindly repeat that for `CN(C)C(=O)CN(C)c1cc(N2CC(CC(N)=O)C2)n2nc(-c3ccccc3Cl)c(-c3ccc(Cl)cc3)c2n1` ? no

Consider next the compound `CC(C)OC1(C(N)=O)CCN(c2cc(OCC(C)(C)O)nc3c(-c4ccc(Cl)cc4)c(-c4ccc(C#N)nc4)nn23)CC1` in the same way. yes

# repeat for `CN(C)C(=O)CN(C)c1cc(N2CCC(C)(C(N)=O)CC2)n2nc(-c3ccccc3Cl)c(-c3ccc(Cl)cc3)c2n1` no

Item: `CN(CP(C)(C)=O)c1cc(N2CC(CC(N)=O)C2)n2nc(-c3ccccc3Cl)c(-c3ccc(Cl)cc3)c2n1` no

###

- experimental-target: human CB1 receptor (Homo sapiens, UniProt P21554)
- Construct: expressed in transfected cells; host or cells: HEK293
- assay-protocol: bioSensAll β-arrestin plasma membrane translocation BRET biosensor (+GRK2) assay (antagonism of CP-55,940)
- Type: cell-based
- conditions-used: HEK293 cells transfected with hCB1 and β-arrestin PM translocation biosensor (+GRK2), EC75 of CP-55,940 (100 nM), overnight incubation, read-out: CB1 wt βarr2 IC50
pIC50: −log10 of the molar value.
Parameter: pIC50. Scope: all listed entries.

These solved cases illustrate the format of a correct answer.
smiles_text=CN(C)C(=O)CN(C)c1cc(N2CC(CC(N)=O)C2)n2nc(-c3ccccc3Cl)c(-c3ccc(Cl)cc3)c2n1 quantity_name=pIC50 test_value="< 5.00"
smiles_text=CC1(C(N)=O)CCN(c2cc(N3CC[C@@H]3CC(=O)O)nc3c(-c4ccc(Cl)cc4)c(-c4ccccc4Cl)nn23)CC1 quantity_name=pIC50 test_value="< 5.00"

Fill in the blank: the reported pIC50 of `OC[C@@H]1CCCN1c1cc(-c2ccc(C(F)(F)F)cc2)n2nc(-c3ccccc3Cl)c(-c3ccc(Cl)cc3)c2n1` is ____. 7.97

###

Attribute: IC50
- experimental-target: human CB1 receptor (Homo sapiens)
- Construct: expressed in transfected cells; host or cells: HEK293
- assay-protocol: bioSensAll GAPL-Gi2 BRET biosensor assay (antagonism of CP-55,940)
- Type: cell-based
- conditions-used: HEK293 cells transfected with hCB1 and GAPL-Gi2 biosensor, EC75 of CP-55,940 (0.1 nM), overnight incubation, read-out: CB1 wt Gi2 IC50
Give just the number in nM; leave the unit off.

compound=COc1ccccc1-c1nn2c(-c3ccc(C(F)(F)F)cc3)cc(N3CCC[C@H]3CO)nc2c1-c1ccc(Cl)cc1 quantity_name=IC50 test_value=14.1

Looking for the measured IC50 of O[C@H]1CCN(c2cc(-c3ccc(C(F)(F)F)nc3)n3nc(-c4ccccc4Cl)c(-c4ccc(Cl)cc4)c3n2)C1 [Compound 72(S)] , can you help? 1.64

Now give it for `OC[C@@H]1CCCN1c1cc(-c2ccc(C(F)(F)F)nc2)n2nc(-c3ccccc3Cl)c(-c3ccc(Cl)cc3)c2n1` too. 1.8

Same lookup for `CCNC(=O)CN(C)c1cc(N2CCC(OCC)(C(N)=O)CC2)n2nc(-c3ccccc3Cl)c(-c3ccc(Cl)cc3)c2n1` , please. 3.89

Do the same for `OC[C@@H]1CCCN1c1cc(N2CCC(C(F)(F)F)CC2)n2nc(-c3ccccc3Cl)c(-c3ccc(Cl)cc3)c2n1` please 1.28

Try this compound too: `C[C@@H](C(N)=O)N(C)c1cc(N2CCC(C)(C(N)=O)CC2)n2nc(-c3ccccc3Cl)c(-c3ccc(Cl)cc3)c2n1` 3.01

Record: `OC[C@@H]1CCCN1c1cc(-c2ccc(C(F)(F)F)cc2)n2nc(-c3ccccc3Cl)c(-c3ccc(Cl)cc3)c2n1` 4.04

Likewise for `CC1(C(N)=O)CCN(c2cc(N3CCC[C@H]3C(N)=O)nc3c(-c4ccc(Cl)cc4)c(-c4ccccc4Cl)nn23)CC1` ? 5.91
